Biological target: Serine/threonine-protein kinase D1 (Homo sapiens) (UniProt Q15139)
Sequence (Q15139 whole entry, looked up): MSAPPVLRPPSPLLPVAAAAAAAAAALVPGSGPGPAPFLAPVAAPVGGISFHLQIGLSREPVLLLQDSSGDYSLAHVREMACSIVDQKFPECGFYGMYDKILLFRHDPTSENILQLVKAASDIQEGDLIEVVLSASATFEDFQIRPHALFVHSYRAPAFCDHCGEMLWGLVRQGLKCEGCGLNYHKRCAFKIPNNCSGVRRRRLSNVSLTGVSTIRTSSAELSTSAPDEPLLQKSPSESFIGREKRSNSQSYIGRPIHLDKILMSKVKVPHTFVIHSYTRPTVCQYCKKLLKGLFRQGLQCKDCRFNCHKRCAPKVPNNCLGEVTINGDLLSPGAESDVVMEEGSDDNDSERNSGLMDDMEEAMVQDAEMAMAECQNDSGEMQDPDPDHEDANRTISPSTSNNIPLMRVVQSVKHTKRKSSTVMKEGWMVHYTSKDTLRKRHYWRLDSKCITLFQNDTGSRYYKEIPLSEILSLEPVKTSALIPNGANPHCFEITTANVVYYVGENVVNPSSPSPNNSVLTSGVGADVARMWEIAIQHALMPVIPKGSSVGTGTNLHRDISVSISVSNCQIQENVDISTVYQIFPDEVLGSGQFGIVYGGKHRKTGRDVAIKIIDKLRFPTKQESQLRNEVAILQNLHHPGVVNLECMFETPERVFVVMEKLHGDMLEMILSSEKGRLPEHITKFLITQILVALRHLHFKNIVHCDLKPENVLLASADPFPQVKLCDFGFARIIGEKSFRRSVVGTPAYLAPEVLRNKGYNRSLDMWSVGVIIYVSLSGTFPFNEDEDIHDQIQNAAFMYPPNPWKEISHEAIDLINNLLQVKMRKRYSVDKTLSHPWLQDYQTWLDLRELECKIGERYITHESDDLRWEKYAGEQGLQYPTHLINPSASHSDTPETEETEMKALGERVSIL
Assay: inhibitors of human PKD1 kinase, biochemical, fluorescence polarization (AID 797)
Settings: PKD1 kinase fluorescence polarization assay; hits give high values; concentration not given here
The whole screen tested about 200,000 compounds, of which about 110 (0.055%) were called active. Many of the other results were omitted from the sample, so actives are more common in it than they were. Where a SMILES comes first, the peptide text is derived from it. [ ]: non-standard residue; d: D form. ξ: configuration not given here. ξM = CSCCC(N)C(=O)O
Below, each entry is listed alongside its reported inhibition.

- compound: "O=C(Nc1cc(S(=O)(=O)N2CCOCC2)ccc1Cl)c1cc(=O)c2ccccc2o1"
  target-or-system: "Serine/threonine-protein kinase D1 (Homo sapiens) (UniProt Q15139)"
  unit-name: "%"
  inhibition: -4.37
- compound: "CC(=O)Nc1ccc(S(=O)(=O)N(CCc2ccccc2)CC(=O)N/N=C/c2ccc(C(=O)O)cc2)cc1"
  target-or-system: "Serine/threonine-protein kinase D1 (Homo sapiens) (UniProt Q15139)"
  unit-name: "%"
  inhibition: 5.13
- compound: "CC(C)NC(=S)Nc1cccc2cnccc12"
  target-or-system: "Serine/threonine-protein kinase D1 (Homo sapiens) (UniProt Q15139)"
  unit-name: "%"
  inhibition: -7.44
- compound: "COC(=O)CNC(=O)C(CCSC)NC(C)=O (configuration not stated) (Ac-[ξM]-Gly-OMe)"
  target-or-system: "Serine/threonine-protein kinase D1 (Homo sapiens) (UniProt Q15139)"
  unit-name: "%"
  inhibition: 9.67
- compound: "Cc1ccc(NC(=O)Nc2nnc(-c3ccncc3)s2)cc1"
  target-or-system: "Serine/threonine-protein kinase D1 (Homo sapiens) (UniProt Q15139)"
  unit-name: "%"
  inhibition: 2.87
- compound: "CC(Oc1ccc(Cl)cc1)c1ccnn1S(C)(=O)=O (configuration not stated)"
  target-or-system: "Serine/threonine-protein kinase D1 (Homo sapiens) (UniProt Q15139)"
  unit-name: "%"
  inhibition: -7.83
- compound: "S=C(NC1CCCCC1)NN1CCOCC1"
  target-or-system: "Serine/threonine-protein kinase D1 (Homo sapiens) (UniProt Q15139)"
  unit-name: "%"
  inhibition: -5.63
- compound: "CN(C)CCCNC(=O)/C=C/c1ccc(OCc2c(F)cccc2Cl)cc1"
  target-or-system: "Serine/threonine-protein kinase D1 (Homo sapiens) (UniProt Q15139)"
  unit-name: "%"
  inhibition: -5.92
- compound: "COc1cccc(C2SCC(=O)N2c2cccc(C)c2)c1OC (configuration not stated)"
  target-or-system: "Serine/threonine-protein kinase D1 (Homo sapiens) (UniProt Q15139)"
  unit-name: "%"
  inhibition: -7.34
- compound: "COc1cc2c(cc1OC)C(Nc1ccc(S(N)(=O)=O)cc1)=NC(C)(C)C2"
  target-or-system: "Serine/threonine-protein kinase D1 (Homo sapiens) (UniProt Q15139)"
  unit-name: "%"
  inhibition: -5.13
- compound: "Cc1ccc(S(=O)(=O)Cc2cc(-c3ccc(Cl)cc3)no2)cc1"
  target-or-system: "Serine/threonine-protein kinase D1 (Homo sapiens) (UniProt Q15139)"
  unit-name: "%"
  inhibition: -1.03
- compound: "Cc1ccc2cc(CCNC(=O)c3c(-c4ccccc4Cl)noc3C)c(=O)[nH]c2c1"
  target-or-system: "Serine/threonine-protein kinase D1 (Homo sapiens) (UniProt Q15139)"
  unit-name: "%"
  inhibition: 0.32
- compound: "COC(=O)[C@@H]1CC[C@H](C)[C@@H](c2ccc(C)cc2)N1C(=O)c1ccc(/C=N/O[C@H](C)c2cn([C@@H]3COC[C@H]3O)nn2)cc1"
  target-or-system: "Serine/threonine-protein kinase D1 (Homo sapiens) (UniProt Q15139)"
  unit-name: "%"
  inhibition: -8.4
- compound: "COc1ccc(CCNC(=O)COC(=O)C2CCCCC2)cc1"
  target-or-system: "Serine/threonine-protein kinase D1 (Homo sapiens) (UniProt Q15139)"
  unit-name: "%"
  inhibition: 1.52
- compound: "S=C(NN=C1CCN(Cc2ccccc2)CC1)NC1CCCCC1"
  target-or-system: "Serine/threonine-protein kinase D1 (Homo sapiens) (UniProt Q15139)"
  unit-name: "%"
  inhibition: 1.24
- compound: "O=C(c1ccccc1)c1ccc(OCC(O)CN2CCCC2)cc1 (configuration not stated)"
  target-or-system: "Serine/threonine-protein kinase D1 (Homo sapiens) (UniProt Q15139)"
  unit-name: "%"
  inhibition: 13.5
- compound: "N#Cc1cccc(Nc2c3c(nc4ccccc24)CCCC3)c1"
  target-or-system: "Serine/threonine-protein kinase D1 (Homo sapiens) (UniProt Q15139)"
  unit-name: "%"
  inhibition: 1.12
- compound: "CC(C)CC(CO)N1CCN(C(=O)c2ccc(Cl)cc2Cl)CCC1=O (configuration not stated)"
  target-or-system: "Serine/threonine-protein kinase D1 (Homo sapiens) (UniProt Q15139)"
  unit-name: "%"
  inhibition: -14
- compound: "COc1ccc(S(=O)(=O)N2CCN(C(=O)NC3CCCCC3)CC2)cc1"
  target-or-system: "Serine/threonine-protein kinase D1 (Homo sapiens) (UniProt Q15139)"
  unit-name: "%"
  inhibition: -1.15
- compound: "O=C(NC(=S)N1CCN(Cc2ccccc2)CC1)c1ccccc1"
  target-or-system: "Serine/threonine-protein kinase D1 (Homo sapiens) (UniProt Q15139)"
  unit-name: "%"
  inhibition: -10.3
- compound: "COc1ccc2ccccc2c1CNc1nnnn1C"
  target-or-system: "Serine/threonine-protein kinase D1 (Homo sapiens) (UniProt Q15139)"
  unit-name: "%"
  inhibition: -8.73
- compound: "CC(C)c1ccc(-c2noc(C3CCCN(S(C)(=O)=O)C3)n2)cc1 (configuration not stated)"
  target-or-system: "Serine/threonine-protein kinase D1 (Homo sapiens) (UniProt Q15139)"
  unit-name: "%"
  inhibition: 0.73
- compound: "Cc1nc2cc(NC(=O)NC3CC3)ccc2n1C"
  target-or-system: "Serine/threonine-protein kinase D1 (Homo sapiens) (UniProt Q15139)"
  unit-name: "%"
  inhibition: -0.99
- compound: "O=[N+]([O-])c1cc(S(=O)(=O)N2CCCC2)ccc1NN=C1CCCC1"
  target-or-system: "Serine/threonine-protein kinase D1 (Homo sapiens) (UniProt Q15139)"
  unit-name: "%"
  inhibition: 2.42
- compound: "O=C(CCc1ccccc1)NNC(=O)c1ccc(Br)cc1"
  target-or-system: "Serine/threonine-protein kinase D1 (Homo sapiens) (UniProt Q15139)"
  unit-name: "%"
  inhibition: 4.58
- compound: "COc1cc(OC)c(C(=O)OC(C)C(=O)Nc2cc(C(F)(F)F)ccc2Cl)cc1OC (configuration not stated)"
  target-or-system: "Serine/threonine-protein kinase D1 (Homo sapiens) (UniProt Q15139)"
  unit-name: "%"
  inhibition: 8.47
- compound: "CC1(C)CC(=O)C(N=Nc2ccc(S(=O)(=O)N3CCCCCC3)cc2)=C(O)C1"
  target-or-system: "Serine/threonine-protein kinase D1 (Homo sapiens) (UniProt Q15139)"
  unit-name: "%"
  inhibition: 4.42
- compound: "CCOc1ccc(N2C(=O)Nc3ccccc3C2(O)C(=O)NCc2ccco2)cc1 (configuration not stated)"
  target-or-system: "Serine/threonine-protein kinase D1 (Homo sapiens) (UniProt Q15139)"
  unit-name: "%"
  inhibition: -4.75
- compound: "COc1ccccc1C(=O)NN1C(=O)C2C3C=CC(O3)C2C1=O (configuration not stated)"
  target-or-system: "Serine/threonine-protein kinase D1 (Homo sapiens) (UniProt Q15139)"
  unit-name: "%"
  inhibition: 52.7
- compound: "O=C(CSc1ncnc2c1nnn2Cc1ccc(F)cc1)NC1CCCC1"
  target-or-system: "Serine/threonine-protein kinase D1 (Homo sapiens) (UniProt Q15139)"
  unit-name: "%"
  inhibition: -10.6
- compound: "COc1ccc(NC(=O)CCNS(=O)(=O)c2ccc3c(c2)c(=O)n(C)c(=O)n3C)cc1OC"
  target-or-system: "Serine/threonine-protein kinase D1 (Homo sapiens) (UniProt Q15139)"
  unit-name: "%"
  inhibition: -3.26
- compound: "COc1ccc(S(=O)(=O)Nc2cccnc2)c(Cl)c1Cl"
  target-or-system: "Serine/threonine-protein kinase D1 (Homo sapiens) (UniProt Q15139)"
  unit-name: "%"
  inhibition: -2.39
- compound: "O=C(O)CC(SCC(=O)Nc1ccc(Br)cc1)C(=O)O (configuration not stated)"
  target-or-system: "Serine/threonine-protein kinase D1 (Homo sapiens) (UniProt Q15139)"
  unit-name: "%"
  inhibition: -6.53
- compound: "Cc1cc(N2CCN(C)CC2)nc2ccc(NC(=S)N3CCOCC3)cc12"
  target-or-system: "Serine/threonine-protein kinase D1 (Homo sapiens) (UniProt Q15139)"
  unit-name: "%"
  inhibition: -7.15
- compound: "O=Cc1ccc(Oc2cccc(C(F)(F)F)c2)nc1"
  target-or-system: "Serine/threonine-protein kinase D1 (Homo sapiens) (UniProt Q15139)"
  unit-name: "%"
  inhibition: 7.02
- compound: "Cc1cccc(NS(=O)(=O)c2ccc(C)c(C(N)=O)c2)c1"
  target-or-system: "Serine/threonine-protein kinase D1 (Homo sapiens) (UniProt Q15139)"
  unit-name: "%"
  inhibition: -2.59
- compound: "CCn1nc(C)c(/C=N/NC(=O)Cc2ccc(Cl)cc2)c1C"
  target-or-system: "Serine/threonine-protein kinase D1 (Homo sapiens) (UniProt Q15139)"
  unit-name: "%"
  inhibition: 3.28
